Data provenance is ChEMBL document CHEMBL1150475.

Assign MIC to each entry below.
System: Staphylococcus aureus
Experiment: Antibacterial activity against gram- positive Staphylococcus aureus MRSA 57
Type: functional
One number for each entry, in µg/mL.

CO/N=C(/C(=O)N[C@@H]1C(=O)N2C(C(=O)O)=C(CSc3cc[n+](C)cc3)OC[C@H]12)c1csc(N)n1.O=S(=O)([O-])O: 50

Give measured MIC for every item shown.
1. CCC(=O)C[n+]1ccc(SCC2=C(C(=O)O)N3C(=O)[C@@H](NC(=O)/C(=N/OC4CCCC4)c4csc(N)n4)[C@H]3CO2)cc1.O=S(=O)([O-])O
2. CO/N=C(/C(=O)N[C@@H]1C(=O)N2C(C(=O)O)=C(CSc3cc[n+](CC(C)=O)cc3)OC[C@H]12)c1csc(N)n1.O=S(=O)([O-])O
3. C[n+]1ccc(SCC2=C(C(=O)O)N3C(=O)[C@@H](NC(=O)/C(=N/OC4CCCC4)c4csc(N)n4)[C@H]3CO2)cc1.O=S(=O)([O-])O

1: 6.25; 2: 100; 3: 3.13
